Please provide measured maximum recommended daily dose (mmol/kg-bw/day) for the entries that follow.
# System: human maximum recommended daily dose, FDA database
# runDescription: DSSTox (FDAMDD) FDA Maximum (Recommended) Daily Dose Database
# reportedConditions: TherapeuticCategory: antibacterial; hits give low values
# Text: The Food and Drug Administration (FDA) Center for Drug Evaluation and Research, Office of Pharmaceutical Science, Informatics and Computational Safety Analysis Staff's Maximum Recommended Daily Dose (FDAMDD) database contains values for over 1200 pharmaceuticals listed in Martindale: The Extra Pharmacopoeia (1973, 1983, and 1993) and The Physicians' Desk Reference (1995 and 1999). […]
Numbers only.

Below, 3 compounds whose answers are already recorded.
compound	reportedValue
CNC(C)[C@@H]1CC[C@@H](N)[C@@H](O[C@H]2[C@H](O)[C@@H](O[C@H]3OC[C@](C)(O)[C@H](NC)[C@H]3O)[C@H](N)C[C@@H]2N)O1 (stereo partly drawn)	0.00628
CO/N=C(\C(=O)N[C@@H]1C(=O)N2C(C(=O)O)=C(CSc3nc(=O)c(=O)[nH]n3C)CS[C@H]12)c1csc(N)n1	0.12
CO[C@@H]1[C@@H](OC(N)=O)[C@@H](O)[C@H](Oc2ccc3c(O)c(NC(=O)c4ccc(O)c(CC=C(C)C)c4)c(=O)oc3c2C)OC1(C)C	0.0394

Please give maximum recommended daily dose (mmol/kg-bw/day), item by item, for the list that follows.
1. COC1[C@@H](O[C@@H]2O[C@H](C)[C@@H](O[C@H]3C[C@@](C)(O)[C@H](OC(=O)CC(C)C)[C@H](C)O3)[C@H](N(C)C)[C@H]2O)[C@@H](CC=O)C[C@@H](C)[C@@H](O)/C=C/C=C/C[C@@H](C)OC(=O)C[C@H]1OC(C)=O (stereo partly drawn)
2. N[C@@H](C(=O)N[C@@H]1C(=O)N2C(C(=O)O)=C(Cl)CC[C@H]12)c1ccccc1

Response:
1: 0.0604; 2: 0.0181

Please give maximum recommended daily dose (mmol/kg-bw/day), item by item, for the list that follows.
1. CO[C@@]1(NC(=O)CSCC#N)C(=O)N2C(C(=O)O)=C(CSc3nnnn3C)CS[C@@H]21
2. CC[C@H]1OC(=O)[C@H](C)[C@@H](O[C@H]2C[C@@](C)(OC)[C@@H](O)[C@H](C)O2)[C@H](C)[C@@H](O[C@@H]2O[C@H](C)C[C@H](N(C)C)[C@H]2O)[C@](C)(O)C[C@@H](C)C(=O)[C@H](C)[C@@H](O)[C@]1(C)O
3. CO/N=C(\C(=O)N[C@@H]1C(=O)N2C(C(=O)O)=CCS[C@H]12)c1csc(N)n1
4. CC(C)(O/N=C(\C(=O)N[C@@H]1C(=O)N2C(C(=O)[O-])=C(C[n+]3ccccc3)CS[C@H]12)c1csc(N)n1)C(=O)O
5. C=CC1=C(C(=O)O)N2C(=O)[C@@H](NC(=O)/C(=N\OCC(=O)O)c3csc(N)n3)[C@H]2SC1

Response:
1: 0.212; 2: 0.0909; 3: 0.261; 4: 0.243; 5: 0.0293

Please give maximum recommended daily dose (mmol/kg-bw/day), item by item, for the list that follows.
1. COc1cnc(NS(=O)(=O)c2ccc(N)cc2)nc1
2. C=C1c2cccc(O)c2C(O)=C2C(=O)[C@]3(O)C(O)=C(C(N)=O)C(=O)[C@@H](N(C)C)[C@@H]3[C@@H](O)[C@H]12
3. CC(=O)O[C@H]1C[C@@]2(C)[C@@H](C[C@@H](O)[C@H]3[C@@]4(C)CC[C@@H](O)[C@@H](C)[C@@H]4CC[C@@]32C)/C1=C(\CCC=C(C)C)C(=O)O
4. CN(C)[C@@H]1C(=O)C(C(N)=O)=C(O)[C@@]2(O)C(=O)C3=C(O)c4c(O)ccc(Cl)c4[C@@H](O)[C@H]3C[C@@H]12
5. CCn1cc(C(=O)O)c(=O)c2cc(F)c(N3CCNCC3)nc21
6. N[C@@H](C(=O)N[C@@H]1C(=O)N2C(C(=O)O)=C(CSc3cn[nH]n3)CS[C@H]12)c1ccc(O)cc1
7. CN[C@H]1[C@@H](O)[C@H](O[C@H]2O[C@H]([C@H](C)N)CC[C@H]2N)[C@@H](N)[C@H](O)[C@@H]1OC

Response:
1. 0.0892
2. 0.0339
3. 0.0484
4. 0.0323
5. 0.0624
6. 0.0361
7. 0.0191
